- target.of.assay: full length human recombinant glucocorticoid receptor (Homo sapiens, UniProt P04150)
- Construct: It contains some partially purified full length human recombinant glucocorticoid receptor
- Sequence (P04150 1-777): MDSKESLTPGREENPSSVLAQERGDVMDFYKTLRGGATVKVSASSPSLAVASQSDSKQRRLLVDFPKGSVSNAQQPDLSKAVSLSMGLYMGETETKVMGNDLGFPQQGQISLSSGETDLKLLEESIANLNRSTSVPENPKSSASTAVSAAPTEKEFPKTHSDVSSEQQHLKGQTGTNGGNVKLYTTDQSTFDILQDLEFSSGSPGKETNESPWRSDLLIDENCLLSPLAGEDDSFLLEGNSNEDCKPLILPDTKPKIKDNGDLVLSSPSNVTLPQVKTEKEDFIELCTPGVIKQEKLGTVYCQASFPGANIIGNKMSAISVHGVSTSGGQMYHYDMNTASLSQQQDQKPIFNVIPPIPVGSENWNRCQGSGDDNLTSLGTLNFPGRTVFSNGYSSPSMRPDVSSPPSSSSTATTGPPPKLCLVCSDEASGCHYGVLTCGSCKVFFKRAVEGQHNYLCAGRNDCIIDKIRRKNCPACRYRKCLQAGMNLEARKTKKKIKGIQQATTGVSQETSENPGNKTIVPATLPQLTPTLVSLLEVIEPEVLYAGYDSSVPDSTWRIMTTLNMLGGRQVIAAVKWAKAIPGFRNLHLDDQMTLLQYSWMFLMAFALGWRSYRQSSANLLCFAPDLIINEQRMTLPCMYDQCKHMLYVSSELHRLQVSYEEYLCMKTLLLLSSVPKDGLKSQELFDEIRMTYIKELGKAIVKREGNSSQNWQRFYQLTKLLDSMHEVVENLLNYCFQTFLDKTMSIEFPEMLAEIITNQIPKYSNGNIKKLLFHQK
- assay.text: Glucocorticoid Receptor Binding Assay (Glucocorticoid Receptor Competitor Assay far red kit, fluorescence polarization)
- conditions.used: competition with fluorescent GR ligand Fluormone GS Far Red, 3 hours at 22° C., pH 7.4; Ki calculated from IC50 by Cheng-Prusoff
quantity: Ki (nM)

Record excerpt, results attached:
# compound, numeric.result
rows = [
    ("C[C@H](c1ccc(-c2ccc(C(=O)O)c(Cl)c2)cc1Cl)[C@@](O)(c1ccc2oc(=O)n(C)c2c1)C(F)(F)F (relative stereo)", 0.3),
    ("C[C@H](c1ccc(-c2ccc(C(=O)O)c(Cl)c2)cc1Cl)[C@@](O)(c1ccc2c(c1)n(C)c(=O)n2C)C(F)(F)F (stereo in doubt)", 1),
    ("C[C@@H](c1ccc(Oc2ccc(C(=O)O)c(Cl)c2)cc1Cl)[C@](O)(c1ccc2c(c1)N(C)S(=O)(=O)N2C)C(F)(F)F (relative stereo)", 3.6),
    ("C[C@H](c1ccc(Oc2ccc(C(=O)O)c(Cl)n2)cc1Cl)[C@@](O)(c1ccc2c(c1)n(C)c(=O)n2C)C(F)(F)F (stereo in doubt)", 0.6),
    ("C[C@@H](c1cc(OCc2ccc(C(=O)O)cc2)ccc1Cl)[C@](O)(c1ccc2c(c1)N(C)C(=O)CO2)C(F)(F)F (relative stereo)", 2),
    ("COC(=O)c1ccc(-c2ccc([C@H](C)[C@](O)(c3cc4c(cc3F)OCC(=O)N4C)C(F)(F)F)c(Cl)c2)cc1F (relative stereo)", 1.3),
    ("C[C@H](c1ccc(-c2ccc(CC(=O)O)cc2)cc1Cl)[C@@](O)(c1ccc2c(c1)n(C)c(=O)n2C)C(F)(F)F (stereo in doubt)", 7),
    ("C[C@H](c1ccc(Oc2ncc(C(=O)O)cc2Cl)cc1Cl)[C@@](O)(c1ccc(C#N)cc1)C(F)(F)F (relative stereo)", 8.9),
    ("C[C@H](c1ccc(Oc2cccc(OCC(=O)O)c2)cc1Cl)[C@@](O)(c1ccc2c(c1)n(C)c(=O)n2C)C(F)(F)F (stereo in doubt)", 0.3),
    ("C[C@H](c1ccc(Oc2ccccc2C(=O)O)cc1Cl)[C@@](O)(c1ccc2c(c1)n(C)c(=O)n2C)C(F)(F)F (relative stereo)", 2.4),
]

a. C[C@H](c1ccc(Oc2ncc(C(=O)O)cc2Cl)cc1Cl)[C@@](O)(c1ccc2oc(=O)n(C)c2c1)C(F)(F)F (stereo in doubt)
b. CC(c1ccc(Oc2ccc(C(=O)O)cc2F)cc1Cl)C(O)(c1ccc2c(c1)n(C)c(=O)n2C)C(F)(F)F (stereo not shown)
c. C[C@@H](c1ccc(Oc2cc(C(F)(F)F)c(C(=O)O)cn2)cc1Cl)[C@](O)(c1ccc2c(c1)n(C)c(=O)n2C)C(F)(F)F (relative stereo)
d. C[C@@H](c1ccc(-c2ccc(CCC(=O)O)cc2)cc1Cl)[C@](O)(c1ccc2c(c1)N(C)C(=O)CO2)C(F)(F)F (relative stereo)
Query: Given 4 compounds, produce a descending ranking by Ki. In plain terms: list the labels in the order you were asked to.
Reply: d, b, a, c

P. C[C@H](c1ccc(Oc2ccc(C(F)(F)F)c(C(=O)O)n2)cc1Cl)[C@@](O)(c1ccc2c(c1)n(C)c(=O)n2C)C(F)(F)F (stereo in doubt)
Q. C[C@H](c1ccc(-c2ccc(C(=O)O)c(F)c2)cc1Cl)[C@@](O)(c1ccc2c(c1)N(C)CCO2)C(F)(F)F (stereo in doubt)
R. C[C@H](c1ccc(Oc2ccc(C(=O)O)cn2)cc1Cl)[C@@](O)(c1ccc2c(c1)N(C)C(=O)CO2)C(F)(F)F (stereo in doubt)
S. C[C@H](c1ccc(Br)cc1C(F)(F)F)[C@@](O)(c1ccc2oc(=O)n(C)c2c1)C(F)(F)F (relative stereo)
Query: Thanks in advance: please rank these 4 entries by Ki, highest to lowest. Answer by listing the labels in the requested order.
Reply: Q, P, R, S
